The values you see were collected from paper PMC10973816.

B1: mouse mGluR6 (metabotropic glutamate receptor 6), wild type, complex N-glycosylated form (upper dimer band, band C) [modified: complex N-glycosylation (Endo H-resistant, PNGase F-sensitive); N-glycosylation sites N290, N445 … (parent)
chain 1: AGSVRLAGGLTLGGLFPVHARGAAGRACGTLKKEQGVHRLEAMLYALDRINADPELLPGVRLGARLLDTCSRDTYALEQALSFVQALIRGRGDGEEASVRCPGGVPPLRAAPPERVVAVVGASASSVSIMVANVLRLFAIPQISYASTAPELSDSTRYDFFSRVVPPDSYQAQAMVDIVRALGWNYVSTLASEGNYGESGVEAFVQISREAGGVCIAQSIKIPREPKPGEFHKVIRRLMETPNARGIIIFANEDDIRRVLEATRQANLTGHFLWVGSDSWGSKISPILNLEEEAVGAITILPKRASIDGFDQYFMTRSLENNRRNIWFAEFWEENFNCKLTSSGGQSDDSTRKCTGEERIGQDSTYEQEGKVQFVIDAVYAIAHALHSMHQALCPGHTGLCPAMEPTDGRTLLHYIRAVRFNGSAGTPVMFNENGDAPGRYDIFQYQATNGSASSGGYQAVGQWAEALRLDMEALQWSGDPHEVPPSQCSLPCGPGERKKMVKGVPCCWHCEACDGYRFQVDEFTCEACPGHMRPTPNHTGCRPTPVVRLTWSSPWAALPLLLAVLGIMATTTIIATFMRHNDTPIVRASGRELSYVLLTGIFLIYAITFLMVAEPCAAVCASRRLLLGLGTTLSYSALLTKTNRIYRIFEQGKRSVTPPPFISPTSQLVITFGLTSLQVVGVIAWLGAQPPHSVIDYEEQRTVDPEQARGVLKCDMSDLSLIGCLGYSLLLMVTCTVYAIKARGVPETFNEAKPIGFTMYTTCIIWLAFVPIFFGTAQSAEKIYIQTTTLTVSLSLSASVSLGMLYVPKTYVILFHPEQNVQKRKRSLKKTSTMAAPPKSENSEDAK
chain 2: QGDCWLIEGDKGFVWLAICSQNQPPYEAIPQQINNTIVDLRLNENRIRSVQYASLSRFGNLTYLNLTKNEIGYIEDGAFSGQFNLQVLQLGYNRLRNLTEGMLRGLSKLEYLYLQANLIEVVMASAFWECPNIVNIDLSMNRIQQLGSGTFAGLTKLSVCEIYSNPFYCSCELLGFLRWLAAFTNATQTHDRVQCESPPVYAGYFLLGQGRHGHQRSILSKLQSVCTEGSYTAEVLGPPRPVPGRSQPGHSPPPPPPEPSDMPCADDECFSGDGTTPLVILTTLVPQTEARPSMKVKQLTQNSATIMVQLPSPFNRMYTLEQYNNSKSFTVSKLTQPQEEIRLTNLYTLTNYTYCVVSTSSGTHHNHTCLTICLPKPPSPPGPVPSPSTATHY

Variants of: B1
assay_overview: pull-down
experimental_context: with ELFN1 extracellular domain fused to human Fc [mouse]; parent: 1; read off a plot
reported_metric: ratio to parent

{"columns": ["mutation_name", "reported_metric", "val"],
 "data": [
  ["chain 1 N538Q", "ratio to parent", 0.13],
  ["chain 1 N267Q", "ratio to parent", 0.59]
]}

P. chain 1 N422Q
Q. chain 1 N450Q
Problem: Given the entries P and Q , determine which has the lower reported ratio to parent. I would appreciate it if you answered with the label of your choice.
P
(P: 0.05, Q: 0.6)
